- system-under-test: purified rabies virus glycoprotein (rabies virus ERA strain) (rabies virus strain ERA, UniProt P03524 20-524)
- experimental-protocol: phage ELISA on coated purified G protein (ERA), anti-M13-HRP
Quick rule for you: OD 492 nm at 0.8 OD 492 nm or higher means fulfilled, lower means not fulfilled.

Examples with answers:
# binder, qualitative-label
records = [
    ("SC04-125 (scFv) scFv: AMAQVQLVESGGGVVQPGRSLRLSCAASGFTFSSYGMHWVRQAPGKGLEWVAVISYDGSDKYYADSVKGRFTISRDNSKNTLYLQMNSLRAEDTAVYYCAKIATAGTGFDYWGQGTLVTVSSGTGGSGGTGSGTGGSTDIQMTQSPSSVSASVGDRVTITCRASQGISSYLAWYQQKPGKAPKLLIYDASSLESGVPSRFSGSGSGTEFTLTISSLQPDDFATYYCQQLNSYPLTFGGGTKVEIKRAAA", "not fulfilled"),
    ("SC04-140 (scFv) scFv: AMAQMQLVQSGGGVVQPGRSLRLSCAASGFTFSSYGMHWVRQAPGKGLEWVAVILYDGSNKYYADSVKGRFTISRDNSKNALYLQMNSLRAEDTAVYYCAKVTNPGDAFDIWGQGTMVTVSSGTGGSGGTGSGTGGSTDIQMTQSPSSLSASVGDRVTITCRASQGISSALAWYQQKPGKAPKLLIYDASSLESGVPSRFSGSGSGTDFTLTISSLQPEDFATYYCQQFNSYPLTFGGGTKVEIKRAAA", "fulfilled"),
]

Is reported OD 492 nm greater than or equal to 0.8 OD 492 nm here: scFv SO57 (scFv) scFv: AMAQVQLVQSGAEVKKPGSSVKVSCKASGGTFNRYTVNWVRQAPGQGLEWMGGIIPIFGTANYAQRFQGRLTITADESTSTAYMELSSLRSDDTAVYFCARENLDNSGTYYYFSGWFDPWGQGTLVTVSSGTGGSGGTGSGTGGSTQSALTQPRSVSGSPGQSVTISCTGTSSDIGGYNFVSWYQQHPGKAPKLMIYDATKRPSGVPDRFSGSKSGNTASLTISGLQAEDEADYYCCSYAGDYTPGVVFGGGTKLTVLGAAA
not fulfilled

Is reported OD 492 nm greater than or equal to 0.8 OD 492 nm here: SC04-001 (scFv) scFv: AMAEVQLVESGGGVVRPGGSLRLSCAASGFTFDDYGMSWVRQAPGKGLEWVSGINWNGGSTGYADSVKGRFTISRDNAKNSLYLQMNSLRAEDTAVYYCAKGLYGELFDYWGQGTLVTVSRGGGGSGGGGSGGGGSSELTQDPAVSVALGQTVRITCQGDSLRSYYASWYQQKPGQAPVLVIYGKNNRPSGIPDRFSGSSSGNTASLTITGAQAEDEADYYCNSRDSSGNHVVFGGGTKLTVLGAAA
fulfilled

Is reported OD 492 nm greater than or equal to 0.8 OD 492 nm here: SC04-073 (scFv) scFv: AMAQVQLVQSGGGVAQPGRSLRLSCAASGFTFSSYGMHWVRQAPGKGLEWVADISYDGSNKYYADSVKGRFTISRDNSKNTLYLQMNSLRAEDTAVYYCAKDGLDLTGTIQPFGYWGQGTLVTVSSGTGGSGGTGSGTGGSTDIQLTQSPSFLSASVGDRVTITCRASHSISSWLAWYQQKPGKAPKLLIYKASSLESGVPSRFSGSGSGTDFTLTISSLQPEDFATYYCLQDYNYPRTFGQGTKLEIKRAAA
not fulfilled
